Can you tell me RGA Efficacy (%) for the items I'm about to list?
- SUBJECT OF TEST: T1, human IL-11 (human, UniProt P20809 22-199)
- T1 sequence: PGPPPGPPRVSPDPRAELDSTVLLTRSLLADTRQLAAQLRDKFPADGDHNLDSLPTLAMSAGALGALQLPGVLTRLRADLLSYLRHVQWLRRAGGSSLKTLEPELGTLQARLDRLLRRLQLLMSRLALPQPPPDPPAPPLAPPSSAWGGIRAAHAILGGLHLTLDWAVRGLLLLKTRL
- MEASUREMENT DESCRIPTION: cell-based or functional assay
Give bare numbers, in %.

Answered examples (8):
TPP-26330 (antibody, V domains shown) VH: EVQLLESGGGLVQPGGSLRLSCAASGFTFSFYGMHWVRQAPGKGLEWVSVISYDGSYKYYADSVKGRFTISRDNSKNTLYLQMNSLRAEDTAVYYCAAGVPDYWGQGTLVTVSS VL: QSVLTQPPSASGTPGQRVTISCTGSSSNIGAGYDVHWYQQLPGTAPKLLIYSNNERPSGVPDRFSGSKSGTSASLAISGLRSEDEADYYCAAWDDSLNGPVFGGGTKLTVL	64.8
TPP-26300 (antibody, V domains shown) VH: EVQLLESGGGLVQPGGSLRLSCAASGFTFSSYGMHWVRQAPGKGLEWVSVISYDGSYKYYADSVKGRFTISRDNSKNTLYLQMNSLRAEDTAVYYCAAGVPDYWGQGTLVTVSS VL: QSVLTQPPSASGTPGQRVTISCTGSSSNIGAGYDVHWYQQLPGTAPKLLIYSNNERPSGVPDRFSGSKSGTSASLAISGLRSEDEADYYCAAWDSSLNGPVFGGGTKLTVL	75.5
TPP-26298 (antibody, V domains shown) VH: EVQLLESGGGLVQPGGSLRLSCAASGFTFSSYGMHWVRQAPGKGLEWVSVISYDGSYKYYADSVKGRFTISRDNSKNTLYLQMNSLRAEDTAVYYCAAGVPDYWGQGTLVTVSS VL: QSVLTQPPSASGTPGQRVTISCLGSSSNIGAGYDVHWYQQLPGTAPKLLIYSNNERPSGVPDRFSGSKSGTSASLAISGLRSEDEADYYCAAWDDSLNGPVFGGGTKLTVL	62.9
TPP-26319 (antibody, V domains shown) VH: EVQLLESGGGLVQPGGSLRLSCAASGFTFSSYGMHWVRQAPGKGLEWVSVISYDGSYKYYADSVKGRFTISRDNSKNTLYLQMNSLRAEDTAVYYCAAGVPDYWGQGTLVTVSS VL: QSVLTQPPSASGTPGQRVTISCTGSSSNIGAGYDVHWYQQLPGTAPKLLIYSNNEKPSGVPDRFSGSKSGTSASLAISGLRSEDEADYYCAAWDDSLNGPVFGGGTKLTVL	48.6
TPP-26321 (antibody, V domains shown) VH: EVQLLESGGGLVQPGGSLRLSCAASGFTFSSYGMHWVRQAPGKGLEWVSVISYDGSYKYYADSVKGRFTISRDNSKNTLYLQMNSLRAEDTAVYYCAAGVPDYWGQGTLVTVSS VL: QSVLTQPPSASGTPGQRVTISCTGSSSNIGAGYDVHWYQQLPGTAPKLLIYSNNERPSGVPDRFSGSKSGTSASLAISGLRSEDEADYYCAAWDLSLNGPVFGGGTKLTVL	71.3
TPP-26309 (antibody, V domains shown) VH: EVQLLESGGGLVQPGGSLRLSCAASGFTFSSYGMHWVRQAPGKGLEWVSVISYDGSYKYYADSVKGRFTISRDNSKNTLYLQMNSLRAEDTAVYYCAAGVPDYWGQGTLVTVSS VL: QSVLTQPPSASGTPGQRVTISCTGSSSNIGAGYDVHWYQQLPGTAPKLLIYSNNERPSGVPDRFSGSKSGTSASLAISGLRSEDEADYYCAAWDFSLNGPVFGGGTKLTVL	63.9
TPP-26294 (antibody, V domains shown) VH: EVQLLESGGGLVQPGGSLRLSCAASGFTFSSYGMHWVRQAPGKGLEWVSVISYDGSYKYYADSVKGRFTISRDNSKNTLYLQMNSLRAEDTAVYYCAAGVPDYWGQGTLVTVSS VL: QSVLTQPPSASGTPGQRVTISCTGSSSNIGAAYDVHWYQQLPGTAPKLLIYSNNERPSGVPDRFSGSKSGTSASLAISGLRSEDEADYYCAAWDDSLNGPVFGGGTKLTVL	69.4
TPP-26312 (antibody, V domains shown) VH: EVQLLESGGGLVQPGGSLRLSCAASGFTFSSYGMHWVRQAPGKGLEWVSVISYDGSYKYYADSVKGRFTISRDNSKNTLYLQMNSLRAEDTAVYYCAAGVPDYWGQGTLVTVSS VL: QSVLTQPPSASGTPGQRVTISCTGSSSNIGAGLDVHWYQQLPGTAPKLLIYSNNERPSGVPDRFSGSKSGTSASLAISGLRSEDEADYYCAAWDDSLNGPVFGGGTKLTVL	68.6

Give RGA Efficacy (%) for all binders that follow.
1. TPP-26295 (antibody, V domains shown) VH: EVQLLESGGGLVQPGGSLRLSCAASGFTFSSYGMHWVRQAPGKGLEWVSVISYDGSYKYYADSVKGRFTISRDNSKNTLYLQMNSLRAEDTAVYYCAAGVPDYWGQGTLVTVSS VL: QSVLTQPPSASGTPGQRVTISCTGSSSNIGAGYDVHWYQQLPGTAPKLLIYSNNERPSGVPDRFSGSKSGTSASLAISGLRSEDEADYYCAAWDHSLNGPVFGGGTKLTVL
2. TPP-26332 (antibody, V domains shown) VH: EVQLLESGGGLVQPGGSLRLSCAASGFTFSSYKMHWVRQAPGKGLEWVSVISYDGSYKYYADSVKGRFTISRDNSKNTLYLQMNSLRAEDTAVYYCAAGVPDYWGQGTLVTVSS VL: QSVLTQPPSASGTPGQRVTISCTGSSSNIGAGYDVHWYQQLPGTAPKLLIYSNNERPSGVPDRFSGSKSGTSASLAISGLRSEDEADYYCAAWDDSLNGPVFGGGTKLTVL

Output line:
1: 69.2; 2: 0.8
